Measured values drawn from ChEMBL document CHEMBL6096692 for this set.

- System: S-adenosylmethionine synthase isoform type-2 (Homo sapiens, UniProt P31153)
- Sequence (P31153 whole entry, canonical isoform): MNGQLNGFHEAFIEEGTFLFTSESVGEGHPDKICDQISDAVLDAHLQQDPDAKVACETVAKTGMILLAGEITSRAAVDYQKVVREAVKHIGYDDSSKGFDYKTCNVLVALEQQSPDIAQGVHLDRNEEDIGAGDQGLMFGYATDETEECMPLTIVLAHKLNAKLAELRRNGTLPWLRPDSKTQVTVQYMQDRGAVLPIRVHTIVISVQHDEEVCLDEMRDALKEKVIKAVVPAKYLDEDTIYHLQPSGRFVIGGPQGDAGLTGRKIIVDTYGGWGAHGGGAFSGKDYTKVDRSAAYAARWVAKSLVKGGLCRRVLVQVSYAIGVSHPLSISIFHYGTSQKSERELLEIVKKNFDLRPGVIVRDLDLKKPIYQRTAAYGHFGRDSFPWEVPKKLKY
- Measurement description: Inhibition of MAT2A (unknown origin) using L-methionine and ATP as substrate preincubated with compound for 10 mins followed by substrate addition and measured after 60 mins by kinase-glo max reagent based microplate reader analysis
Readout type: IC50 (nM)

* O=c1c(-c2ccc3ncn(C4CC4)c3c2)nc2cnc(NCC(F)(F)F)nc2n1-c1ccc(OC(F)F)cc1 | 83
* Cn1cnc2ccc(-c3nc4cnc(NCC5CC5)nc4n(-c4ccc(OC(F)F)cc4)c3=O)cc21 | 613
* COc1ccc(-n2cc3cnc(NCC(F)(F)F)nc3c(-c3ccc(Br)cc3)c2=O)cc1 | 56.1

I: O=c1c(-c2ccc3ncnn3c2)nc2ccc(C3CC3)cc2n1-c1ccc(OC(F)F)cc1
II: Cn1cc2cc(-c3nc4ccc(C5CC5)cc4n(-c4ccc(OC(F)F)cc4)c3=O)ccc2n1
// query Field: entry with larger IC50 (options I / II ). When you have decided, please share the label of that item.
// result I
(I: 115 nM, II: 79.2 nM)

A: COc1ccc(-c2nc3cnc(NCC(F)(F)F)nc3n(-c3ccc(Cl)cc3)c2=O)cc1
B: CC1=Nc2ccc(-c3nc4ccc(C5CC5)cc4n(-c4ccc(OC(F)F)cc4)c3=O)cc2C1(C)C
// query Field: entry with larger IC50 (options A / B ). When you have decided, please share the label of that item.
// result A
(A: 138 nM, B: 89.2 nM)

A: O=c1c(-c2ccc3nncn3c2)nc2ccc(C3CC3)cc2n1-c1ccc(OC(F)F)cc1
B: O=c1c(-c2ccc3c(c2)CCCO3)nc2cnc(NCC(F)(F)F)nc2n1-c1ccc(OC(F)F)cc1
// query Field: entry with larger IC50 (options A / B ). When you have decided, please share the label of that item.
// result A
(A: 103 nM, B: 37.7 nM)
